Assign pIC50 to each entry below.
test.system: aldose reductase (Bos taurus, UniProt P16116)
Construct: purified aldose reductase is isolated in known manner from bovine lenses
protocol.text: in vitro inhibition of purified aldose reductase isolated from bovine lenses (spectrophotometric)
study.conditions: purified bovine lens aldose reductase; reduction of glucose to sorbitol; read-out: IC50 (concentration necessary to produce 50% inhibition of enzymic activity)
Entry type: numeric. Quantity: pIC50, the -log10 of concentration in molar units.

Quick one: pIC50 for Cc1cccc2c1N(Cc1ccc(Br)cc1F)C(=O)C21OC(=O)NC1=O (centres unmarked) [Example 6] ?
7.70

Same again, this time with Cc1cc(Cl)cc2c1N(Cc1ccc(Cl)c(Cl)c1)C(=O)C21OC(=O)NC1=O (centres unmarked) [Example 7]
7.60
